Documented TGI across a set of compounds
- System: DU-145 prostate
- Test details: NCI tumour cell line growth inhibition, 48 h

The following compounds have reported results that may help.
1) C#CC(O)/C=C/C(O)CCCC(O)CC#CC(O)C#CCCCCC(O)/C=C/CCCC(=O)CCCCCCCCCCCCCCCC(O)C(O)C#CC(=O)O (configuration not stated) :: > 25 µM
2) CNCC(SC)c1ccc(O)c(O)c1 (configuration not stated) :: 37.4 µM
3) C[C@]12CCC3c4ccc(O)cc4CCC3C1CC[C@@H]2NC(=O)/C=C/c1ccc(O)c(O)c1 (some centres not stated) :: 32.5 µM

**Q:** Identify measured TGI corresponding to `CN(CCOc1ccc(NS(C)(=O)=O)cc1)CCc1ccc(NS(C)(=O)=O)cc1`
**A:** > 100 µM

**Q:** Identify measured TGI corresponding to `C/C(CC(O)(C(F)(F)F)C(F)(F)F)=N\O`
**A:** > 10 µM

**Q:** Identify measured TGI corresponding to COc1cc(C2CC(c3ccc(Cl)cc3)=NN2C(C)=O)ccc1Oc1ccnc2cc(Cl)ccc12 (configuration not stated)
**A:** > 100 µM

**Q:** Identify measured TGI corresponding to CC(C)(C)N=C1C(=O)C2(C)CCC1C2(C)C (configuration not stated)
**A:** > 100 µM
